Tested on: thymus weight in rats
Assay: Thymus inhibition testing (subcutaneous administration)
Format: in vivo, rat
Conditions: Table VIII, 10 mg/kg/day s.c., three days
Procedure: Several further studies were undertaken to determine the effects of selected compounds of the invention on thymi weights in rats when the drugs were systemically administered. In each of these studies, male Sprague-Dawley rats were used. […] On the fifth day (48 hours following the last treatment), the animals were sacrificed and the thymi weights were recorded. […] It is evident that the higher the inhibition of thymus activity at a given dose, the more toxic the compound is.
Classification field: enter satisfied for Thymus wt. values not below 300 mg, not satisfied for values below it.

Examples from the recorded data:
Does `CC(C)OC(=O)O[C@]1(C(=O)OCCl)[C@@H](C)C[C@H]2[C@@H]3CCC4=CC(=O)C=C[C@]4(C)[C@@]3(F)[C@@H](O)C[C@@]21C` have a reported Thymus wt. of at least 300 mg? not satisfied

Does `CC(C)OC(=O)O[C@]1(C(=O)OCCl)[C@H](C)C[C@H]2[C@@H]3CCC4=CC(=O)C=C[C@]4(C)[C@@]3(F)[C@@H](O)C[C@@]21C` have a reported Thymus wt. of at least 300 mg? not satisfied

Does `CCOC(=O)O[C@]1(C(=O)OCCl)[C@@H](C)C[C@H]2[C@@H]3CCC4=CC(=O)C=C[C@]4(C)[C@@]3(F)[C@@H](O)C[C@@]21C` have a reported Thymus wt. of at least 300 mg? not satisfied

Continuing:
Does `CCCOC(=O)O[C@]1(C(=O)OCCl)[C@H](C)C[C@H]2[C@@H]3CCC4=CC(=O)C=C[C@]4(C)[C@@]3(F)[C@@H](O)C[C@@]21C` have a reported Thymus wt. of at least 300 mg? not satisfied

Does `CCOC(=O)O[C@]1(C(=O)OCCl)[C@H](C)C[C@H]2[C@@H]3CCC4=CC(=O)C=C[C@]4(C)[C@@]3(F)[C@@H](O)C[C@@]21C` have a reported Thymus wt. of at least 300 mg? satisfied

----------
System: thymus weight in rats
Test: Thymus inhibition testing (subcutaneous administration)
Format: in vivo, rat
Settings: Table X, betamethasone 17-valerate = 1
readout.label: Relative Potency (TED40)
Please reply with the number alone, leaving off any unit.

The compound listed as `CC(C)OC(=O)O[C@]1(C(=O)OCCl)CC[C@H]2[C@@H]3CCC4=CC(=O)C=C[C@]4(C)[C@H]3[C@@H](O)C[C@@]21C` has a reported Relative Potency (TED40) of 0.02

Continuing:
The compound listed as `CC(C)OC(=O)O[C@]1(C(=O)OCCl)CC[C@H]2[C@@H]3CCC4=CC(=O)CC[C@]4(C)[C@H]3[C@@H](O)C[C@@]21C` has a reported Relative Potency (TED40) of 0.01

The compound listed as `CCOC(=O)O[C@]1(C(=O)OCCl)[C@H](C)C[C@H]2[C@@H]3CCC4=CC(=O)C=C[C@]4(C)[C@@]3(F)[C@@H](O)C[C@@]21C` has a reported Relative Potency (TED40) of 0.0058

The compound listed as CCCCC(=O)O[C@]1(C(=O)CO)[C@@H](C)C[C@H]2[C@@H]3CCC4=CC(=O)C=C[C@]4(C)[C@@]3(F)[C@@H](O)C[C@@]21C [Betamethasone 17-valerate, reference compound] has a reported Relative Potency (TED40) of 1

----------
Test system: granulation tissue formation caused by implantation of cotton pellets
Test: Granuloma formation test (local cotton pellet granuloma assay)
Assay type: in vivo, rat
Details: chloromethyl 11β-hydroxy-17α-isopropoxycarbonyloxyandrost-4-en-3-one-17β-carboxylate = 1
Relative potency (ED40) values, listed per item
Please reply with the number alone, leaving off any unit.

# value of Relative potency (ED40), granulation tissue formation caused by implantation of cotton pellets, item `CC(C)OC(=O)O[C@]1(C(=O)OCCl)CC[C@H]2[C@@H]3CCC4=CC(=O)CC[C@]4(C)[C@H]3[C@@H](O)C[C@@]21C` = 1

# value of Relative potency (ED40), granulation tissue formation caused by implantation of cotton pellets, item `CC(C)OC(=O)O[C@]1(C(=O)OCCl)[C@@H](C)C[C@H]2[C@@H]3CCC4=CC(=O)C=C[C@]4(C)[C@@]3(F)[C@@H](O)C[C@@]21C` = 1228

Then this compound:
# value of Relative potency (ED40), granulation tissue formation caused by implantation of cotton pellets, item `CCOC(=O)O[C@]1(C(=O)OCCl)[C@@H](C)C[C@H]2[C@@H]3CCC4=CC(=O)C=C[C@]4(C)[C@@]3(F)[C@@H](O)C[C@@]21C` = 133

----------
Tested on: granulation tissue formation caused by implantation of cotton pellets
Assay: Granuloma formation test (local cotton pellet granuloma assay)
Format: in vivo, rat
Settings: chloromethyl 11β-hydroxy-17α-isopropoxycarbonyloxyandrost-4-en-3-one-17β-carboxylate = 1
Protocol: The test compound was dissolved in acetone and aliquots of varying concentrations were injected into cotton pellets. The pellets were dried and then one pellet was implanted beneath the skin of each test rat. Six days later, the animals were sacrificed and the granulation tissue (granuloma) which formed in and around the implanted pellet was removed, dried and weighed. In addition, the thymi and adrenals were removed and weighed.
readout.label: Relative potency (ED40)
Please reply with the number alone, leaving off any unit.

Worked examples follow.
# value of Relative potency (ED40), granulation tissue formation caused by implantation of cotton pellets, item `CCOC(=O)O[C@]1(C(=O)OCCl)[C@H](C)C[C@H]2[C@@H]3CCC4=CC(=O)C=C[C@]4(C)[C@@]3(F)[C@@H](O)C[C@@]21C` = 653

# value of Relative potency (ED40), granulation tissue formation caused by implantation of cotton pellets, item `CCCOC(=O)O[C@]1(C(=O)OCCl)[C@H](C)C[C@H]2[C@@H]3CCC4=CC(=O)C=C[C@]4(C)[C@@]3(F)[C@@H](O)C[C@@]21C` = 529

Then this compound:
# value of Relative potency (ED40), granulation tissue formation caused by implantation of cotton pellets, item `CC(C)OC(=O)O[C@]1(C(=O)OCCl)CC[C@H]2[C@@H]3CCC4=CC(=O)C=C[C@]4(C)[C@H]3[C@@H](O)C[C@@]21C` = 6.5

----------
System: thymus weight in rats
Experiment: Thymus inhibition testing (subcutaneous administration)
Type: in vivo, rat
Conditions: Table VII, 3 mg/kg/day s.c., three days
readout.label: Thymus (mg)
Just the number in mg, nothing appended.

Worked examples follow.
The molecule listed as CCCCC(=O)O[C@]1(C(=O)CO)[C@@H](C)C[C@H]2[C@@H]3CCC4=CC(=O)C=C[C@]4(C)[C@@]3(F)[C@@H](O)C[C@@]21C [Betamethasone 17-valerate, reference compound] has a reported Thymus of 119

The molecule listed as `CC(C)OC(=O)O[C@]1(C(=O)OCCl)CC[C@H]2[C@@H]3CCC4=CC(=O)CC[C@]4(C)[C@H]3[C@@H](O)C[C@@]21C` has a reported Thymus of 439

The molecule listed as `CCOC(=O)O[C@]1(C(=O)OCCl)[C@H](C)C[C@H]2[C@@H]3CCC4=CC(=O)C=C[C@]4(C)[C@@]3(F)[C@@H](O)C[C@@]21C` has a reported Thymus of 412

Continuing:
The molecule listed as CCCC(=O)O[C@]1(C(=O)CO)CC[C@H]2[C@@H]3CCC4=CC(=O)CC[C@]4(C)[C@H]3[C@@H](O)C[C@@]21C [Hydrocortisone 17-butyrate, reference compound] has a reported Thymus of 166

The molecule listed as `CC(C)OC(=O)O[C@]1(C(=O)OCCl)CC[C@H]2[C@@H]3CCC4=CC(=O)C=C[C@]4(C)[C@H]3[C@@H](O)C[C@@]21C` has a reported Thymus of 377

----------
Body weight gain values, listed per item
System: thymus weight in rats
Assay: Thymus inhibition testing (subcutaneous administration)
Assay type: in vivo, rat
Conditions: Table VIII, 10 mg/kg/day s.c., three days
Just the number in g, nothing appended.

# value of Body weight gain, thymus weight in rats, item `CC(C)OC(=O)O[C@]1(C(=O)OCCl)[C@@H](C)C[C@H]2[C@@H]3CCC4=CC(=O)C=C[C@]4(C)[C@@]3(F)[C@@H](O)C[C@@]21C` = 5.3

# value of Body weight gain, thymus weight in rats, item `CCOC(=O)O[C@]1(C(=O)OCCl)[C@H](C)C[C@H]2[C@@H]3CCC4=CC(=O)C=C[C@]4(C)[C@@]3(F)[C@@H](O)C[C@@]21C` = 14.2

# value of Body weight gain, thymus weight in rats, item `CC(C)OC(=O)O[C@]1(C(=O)OCCl)[C@H](C)C[C@H]2[C@@H]3CCC4=CC(=O)C=C[C@]4(C)[C@@]3(F)[C@@H](O)C[C@@]21C` = 2.7

# value of Body weight gain, thymus weight in rats, item `CCOC(=O)O[C@]1(C(=O)OCCl)[C@@H](C)C[C@H]2[C@@H]3CCC4=CC(=O)C=C[C@]4(C)[C@@]3(F)[C@@H](O)C[C@@]21C` = 2.4

Then this molecule:
# value of Body weight gain, thymus weight in rats, item `CCCOC(=O)O[C@]1(C(=O)OCCl)[C@H](C)C[C@H]2[C@@H]3CCC4=CC(=O)C=C[C@]4(C)[C@@]3(F)[C@@H](O)C[C@@]21C` = 2.7
